Biological target: SHP2 protein (Homo sapiens)
Sequence (Q06124 1-593): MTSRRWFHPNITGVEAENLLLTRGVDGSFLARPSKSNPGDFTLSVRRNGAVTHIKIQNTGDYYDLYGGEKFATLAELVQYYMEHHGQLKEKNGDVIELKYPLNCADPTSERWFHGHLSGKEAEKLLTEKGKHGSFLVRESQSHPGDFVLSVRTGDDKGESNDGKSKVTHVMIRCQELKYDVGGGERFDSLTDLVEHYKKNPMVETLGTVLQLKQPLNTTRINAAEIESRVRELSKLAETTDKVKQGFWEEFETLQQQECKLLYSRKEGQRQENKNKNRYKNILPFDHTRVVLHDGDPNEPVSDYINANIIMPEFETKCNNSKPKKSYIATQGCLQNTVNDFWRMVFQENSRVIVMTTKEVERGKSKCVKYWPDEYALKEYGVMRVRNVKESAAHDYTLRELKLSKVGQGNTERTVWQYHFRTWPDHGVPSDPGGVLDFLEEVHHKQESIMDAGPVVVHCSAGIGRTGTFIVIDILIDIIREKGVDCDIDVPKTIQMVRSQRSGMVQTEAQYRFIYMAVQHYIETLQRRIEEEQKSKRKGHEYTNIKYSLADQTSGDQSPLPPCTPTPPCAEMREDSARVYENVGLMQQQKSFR
Assay: Degradation activity on SHP2 protein in NCI-H358 cells (Western blot, DC50)
Format: cell-based
Design: endogenous in cells
Conditions: read-out: Degradation activity for differenct cell lines NCI-H358 (DC50)
Description: (1) MV-411 cells were cultured in the cell culture medium, and then well-growing cells were selected and inoculated in a 12-well plate, with 1 mL/well and 1×10^6 cells/well. The plate was incubated overnight in a 5% CO2 cell incubator at 37° C. (2) 10 mM storage solution of each drug was prepared using dimethylsulfoxide (DMSO). […] (3) After 24 hours of cultivation, the cells were lysed using RIPA cell lysate, and the proteins were extracted. The protein concentration was measured using a BCA assay kit. […]
observable: DC50

The cases that follow already have their DC50 on record.
# compound, observable, result
data = [
    ("CCC1(N)CCN(c2cnc(Sc3cccc(NC(=O)CCCCCCCCN4CCC(c5ccc(C(=O)NCc6ccc7c(c6)CN(C6CCC(=O)NC6=O)C7=O)nn5)CC4)c3)cn2)CC1 (stereo not shown)", "DC50", "< 100 nM"),
    ("Cc1cc(C(=O)NCc2ccc3c(c2)CN(C2CCC(=O)NC2=O)C3=O)ncc1C1=CCN(C2CCN(c3ccc(C(=O)Nc4cccc(Sc5cnc(N6CCC7(CC6)CO[C@@H](C)[C@H]7N)cn5)c4)cc3F)CC2)CC1 (stereo partly shown)", "DC50", "< 100 nM"),
]

Here are 6 compounds. What values of DC50 were reported for them?
1. CC1(N)CCN(c2cnc(Sc3cccc(NC(=O)CCCCN4CCC(N5CCN(c6ccc(C(=O)NCc7ccc8c(c7)CN(C7CCC(=O)NC7=O)C8=O)nn6)CC5)C4)c3)cn2)CC1 (stereo not shown)
2. CC1(N)CCN(c2cnc(Sc3cccc(NC(=O)CCCCCCCCN4CCN(c5ccc(C(=O)NCc6ccc7c(c6)CN(C6CCC(=O)NC6=O)C7=O)nn5)CC4C(F)(F)F)c3)cn2)CC1 (stereo not shown) [Compound 225]
3. NC1(CO)CCN(c2cnc(Sc3cccc(NC(=O)CCCCCCN4CC5(CCN(c6ccc(C(=O)NCc7ccc8c(c7)CN(C7CCC(=O)NC7=O)C8=O)nn6)C5)C4)c3)cn2)CC1 (stereo not shown)
4. CC1(N)CCN(c2cnc(Sc3cccc(NC(=O)c4ccc(N5CCC(N6CC=C(c7ccc(C(=O)NCc8ccc9c(c8)CN(C8CCC(=O)NC8=O)C9=O)nc7)CC6)CC5)cc4F)c3)cn2)CC1 (stereo not shown)
5. C[C@@H]1CN(c2ccc(C(=O)NCc3ccc4c(c3)CN(C3CCC(=O)NC3=O)C4=O)nn2)CCN1CCCCCCCCC(=O)Nc1cccc(Sc2cnc(N3CCC(C)(N)CC3)cn2)c1 (stereo partly shown)
6. CC1(N)CCN(c2cnc(Sc3cccc(NC(=O)CCCCCCCN4CC5CN(c6ccc(C(=O)NCc7ccc8c(c7)CN(C7CCC(=O)NC7=O)C8=O)nn6)CC5C4)c3)cn2)CC1 (stereo not shown)

["100 to 1000 nM", "< 100 nM", "100 to 1000 nM", "< 100 nM", "< 100 nM", "< 100 nM"]

###

For each of the compounds below, state its DC50.
Target: SHP2 protein (Homo sapiens, UniProt Q06124)
Test: Degradation activity on SHP2 protein in MV-411 cells (Western blot, DC50)
Format: cell-based
Design: endogenous in cells
Details: MV411 cells, 24 hours, read-out: Degradation activity for differenct cell lines MV411 (DC50)
Protocol: […] (3) After 24 hours of cultivation, the cells were lysed using RIPA cell lysate, and the proteins were extracted. The protein concentration was measured using a BCA assay kit. […] (6) The images were analyzed with Image J grayscale, and the degradation ratio of protein bands in the test group was calculated, based on the negative control group (DMSO) (100%). […]

# compound, result
measured = [
    ("CC1(N)CCN(c2cnc(Sc3cccc(NC(=O)CCCCCCCCCC(=O)NCc4ccc5c(c4)CN(C4CCC(=O)NC4=O)C5=O)c3)cn2)CC1 (stereo not shown) [Compound 57]", "> 1000 nM"),
    ("CN(Cc1ccc2c(c1)CN(C1CCC(=O)NC1=O)C2=O)C(=O)c1ccc(N2CCC3(CN(CCCCCCC(=O)Nc4cccc(Sc5cnc(N6CCC(N)(CO)CC6)cn5)c4)C3)C2)nn1 (stereo not shown) [Compound 169]", "< 100 nM"),
    ("CCC1(N)CCN(c2cnc(Sc3cccc(NC(=O)CCCCCCN4CC5(CCN(c6ccc(C(=O)NCc7ccc8c(c7)CN(C7CCC(=O)NC7=O)C8=O)nn6)C5)C4)c3)cn2)CC1 (stereo not shown) [Compound 161]", "< 100 nM"),
    ("CC1(N)CCN(c2cnc(Sc3cccc(NC(=O)CCCCCOc4ccc(C5CCC(C(=O)NCc6ccc7c(c6)CN(C6CCC(=O)NC6=O)C7=O)CC5)cc4)c3)cn2)CC1 (stereo not shown) [Compound 191]", "< 100 nM"),
    ("Cc1ncsc1-c1ccc([C@H](C)NC(=O)[C@@H]2C[C@@H](O)CN2C(=O)[C@@H](NC(=O)CCCCCCCCCCCCC(=O)Nc2cccc(Sc3cnc(N4CCC(C)(N)CC4)cn3)c2)C(C)(C)C)cc1 [Compound 50]", "< 100 nM"),
]

// for each compound below, give its DC50
1. CC1(N)CCN(c2cnc(Sc3cccc(NC(=O)CCCCCCCCCCNc4ccc(C(=O)NCc5ccc6c(c5)CN(C5CCC(=O)NC5=O)C6=O)nn4)c3)cn2)CC1 (stereo not shown) [Compound 185]
2. CC1(N)CCN(c2cnc(Sc3cccc(NC(=O)CCCCCCCCC(=O)NCc4ccc5c(c4)CN(C4CCC(=O)NC4=O)C5=O)c3)cn2)CC1 (stereo not shown) [Compound 53]

1: < 100 nM; 2: > 1000 nM

List the reported DC50 of each compound below.
1. CC1(N)CCN(c2cnc(Sc3cccc(NC(=O)CCCCCCCCCCC(=O)NCc4ccc5c(c4)CN(C4CCC(=O)NC4=O)C5=O)c3)cn2)CC1 (stereo not shown) [Compound 40]
2. Cc1ncsc1-c1ccc([C@H](C)NC(=O)[C@@H]2C[C@@H](O)CN2C(=O)[C@@H](NC(=O)c2ccc(N3CCC4(CN(CCC(=O)Nc5cccc(Sc6cnc(N7CCC(C)(N)CC7)cn6)c5)C4)C3)nn2)C(C)(C)C)cc1 [Compound 98]
3. CC1(N)CCN(c2cnc(Sc3cccc(NC(=O)CCCCCCN4CC5(CCN(c6ccc(C(=O)NCc7ccc8c(c7)CN(C7CCC(=O)NC7=O)C8=O)nc6Cl)C5)C4)c3)cn2)CC1 (stereo not shown) [Compound 200]

1: < 100 nM; 2: < 100 nM; 3: < 100 nM

###

Task for the reader: assign each of the following compounds its reported DC50.
Molecular target: SHP2 protein (Homo sapiens)
Experiment: Degradation activity on SHP2 protein in MV-411 cells (Western blot, DC50)
Type: cell-based
Design: endogenous in cells
Details: MV411 cells, 24 hours, read-out: Degradation activity for differenct cell lines MV411 (DC50)
Experimental: […] (3) After 24 hours of cultivation, the cells were lysed using RIPA cell lysate, and the proteins were extracted. The protein concentration was measured using a BCA assay kit. […] (6) The images were analyzed with Image J grayscale, and the degradation ratio of protein bands in the test group was calculated, based on the negative control group (DMSO) (100%). […]

Solved cases below.
# compound, tested_target, DC50
records = [
    ("NC1(CF)CCN(c2cnc(Sc3ccc(NC(=O)CCCCN4CC5(CCN(c6ncc(C(=O)NCc7ccc8c(c7)CN(C7CCC(=O)NC7=O)C8=O)cn6)C5)C4)cc3)cn2)CC1 (centres unmarked) [Compound 129]", "SHP2 protein (Homo sapiens)", "> 1000 nM"),
    ("O=C1CCC(N2Cc3cc(CNC(=O)c4ccc(N5CCC6(CN(CCC(=O)Nc7cccc(Sc8cnc(N9CCC%10(CCNC%10)CC9)cn8)c7)C6)C5)nn4)ccc3C2=O)C(=O)N1 (centres unmarked) [Compound 111]", "SHP2 protein (Homo sapiens)", "> 1000 nM"),
    ("NC1(CF)CCN(c2cnc(Sc3cccc(NC(=O)CCCCN4CC5(CCN(c6ccc(C(=O)NCc7ccc8c(c7)CN(C7CCC(=O)NC7=O)C8=O)nn6)C5)C4)c3)cn2)CC1 (centres unmarked) [Compound 137]", "SHP2 protein (Homo sapiens)", "> 1000 nM"),
    ("N[C@H]1CCN(c2cnc(Sc3cccc(NC(=O)CCCCCCN4CC5(CCN(c6ccc(C(=O)NCc7ccc8c(c7)CN(C7CCC(=O)NC7=O)C8=O)nn6)C5)C4)c3)cn2)C[C@@H]1O (some centres unmarked) [Compound 197]", "SHP2 protein (Homo sapiens)", "> 1000 nM"),
]

// switching to the query compound
Lab note: compound CC1(N)CCN(c2cnc(Sc3cccc(NC(=O)CCCCCCCN4CC5(CC(n6cc(C(=O)NCc7ccc8c(c7)CN(C7CCC(=O)NC7=O)C8=O)cn6)C5)C4)c3)cn2)CC1 (centres unmarked) [Compound 128] tested on SHP2 protein (Homo sapiens); recorded DC50 was < 100 nM
